targetOfAssay: human orexin-1 receptor (Homo sapiens (Human))
Sequence (O43613 whole entry): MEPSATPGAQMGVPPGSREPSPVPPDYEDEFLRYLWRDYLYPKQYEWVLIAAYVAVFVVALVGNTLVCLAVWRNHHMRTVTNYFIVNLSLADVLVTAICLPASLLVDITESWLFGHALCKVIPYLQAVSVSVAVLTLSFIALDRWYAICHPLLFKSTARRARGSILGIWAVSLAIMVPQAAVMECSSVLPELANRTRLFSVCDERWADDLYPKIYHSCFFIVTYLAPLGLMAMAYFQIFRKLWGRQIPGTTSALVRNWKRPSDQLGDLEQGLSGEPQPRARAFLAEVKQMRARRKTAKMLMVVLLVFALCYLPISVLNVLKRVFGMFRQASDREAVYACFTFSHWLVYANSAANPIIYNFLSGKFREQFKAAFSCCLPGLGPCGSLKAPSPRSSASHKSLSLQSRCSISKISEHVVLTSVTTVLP
assayNotes: In vitro assay: intracellular calcium measurements (FLIPR), antagonistic activity
Type: cell-based
assayContext: CHO cells, 3 nM orexin-A, compound incubation 120 min; marked values are geometric means of n = 2-6; read-out: IC50 OX1
measuredQuantity: pIC50
A value of pIC50 is the negative decimal logarithm of a concentration given in moles per litre.

Reference set (2 entries):
COc1cccc(OC)c1C1CCCCC(=O)N1Cc1cccc(-n2cccn2)n1 (stereo not drawn) = 7.42
CCOc1cccc(F)c1[C@@H]1C[C@@H](O)C(=O)N1Cc1ccccc1OC(F)(F)F (racemic) = 5.77

# get_value(readout='pIC50', item= COc1cccc(OC)c1C1CCCCC(=O)N1Cc1ccc2ccccc2c1 (stereo not drawn) )
7.92
